// values below are reported pIC50
Target Of Assay: PRMT5-MEP50 enzyme complex (Homo sapiens)
Measurement Description: In vitro PRMT5 enzyme activity assay (methylation of histone H4 arginine H4R3, ELISA absorbance at 450 nm)
Conditions Used: S-adenosylmethionine, histone H4 peptide, 2 hours at room temperature, 8 points 10 μM to 0.128 nM
pIC50: −log10 of the molar value.

Compound	Assay Readout	Observed Value
CC(=O)N1CCC(Nc2ccc3c(c2)CCN(C[C@H](O)CN2CCc4ccccc4C2)C3=O)CC1	pIC50	7.00 to 9.00
O=C1c2ccc(N3CCOC3=O)cc2CCN1C[C@H](O)CN1CCc2ccccc2C1	pIC50	6.00 to 7.00
O=C1c2ccc(NC3CCCNC3)cc2CCN1C[C@H](O)CN1CCc2ccccc2C1 (some centres unmarked)	pIC50	6.00 to 7.00
O=C1c2ccc(N3CCCC(CO)C3)cc2CCN1C[C@H](O)CN1CCc2ccccc2C1 (some centres unmarked)	pIC50	7.00 to 9.00

Input O=CN1CCN(c2ccc3c(c2)CCN(C[C@H](O)CN2CCc4ccccc4C2)C3=O)CC1 , output reported pIC50.
7.00 to 9.00

Input O=C1c2ccc(N3CCCC3=O)cc2CCN1C[C@H](O)CN1CCc2ccccc2C1 , output reported pIC50.
5.00 to 6.00

Input CN1CCN(c2ccc3c(c2)CCN(C[C@H](O)CN2CCc4ccccc4C2)C3=O)CCC1=O , output reported pIC50.
6.00 to 7.00

###

Target Of Assay: PRMT5-MEP50 enzyme complex (Homo sapiens, UniProt O14744)
Sequence (O14744 2-637 limits assumed): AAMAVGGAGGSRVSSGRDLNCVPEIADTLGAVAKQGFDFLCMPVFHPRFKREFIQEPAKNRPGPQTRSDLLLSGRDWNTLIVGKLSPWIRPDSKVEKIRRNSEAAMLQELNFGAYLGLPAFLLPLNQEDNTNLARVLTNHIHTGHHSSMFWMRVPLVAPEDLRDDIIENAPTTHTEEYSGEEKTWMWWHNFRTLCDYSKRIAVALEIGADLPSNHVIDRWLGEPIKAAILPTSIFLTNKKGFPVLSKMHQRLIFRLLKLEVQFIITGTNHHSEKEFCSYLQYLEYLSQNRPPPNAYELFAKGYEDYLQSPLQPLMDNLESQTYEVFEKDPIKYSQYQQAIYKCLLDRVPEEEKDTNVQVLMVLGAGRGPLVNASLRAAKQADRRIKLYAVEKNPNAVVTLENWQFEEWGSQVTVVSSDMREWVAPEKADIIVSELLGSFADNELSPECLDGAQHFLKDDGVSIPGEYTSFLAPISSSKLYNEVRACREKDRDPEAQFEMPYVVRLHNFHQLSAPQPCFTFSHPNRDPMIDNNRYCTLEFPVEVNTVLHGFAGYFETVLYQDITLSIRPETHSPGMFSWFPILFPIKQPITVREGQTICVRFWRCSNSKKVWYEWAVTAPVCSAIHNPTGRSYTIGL
Sequence (Q9BQA1 2-342 partner limits assumed): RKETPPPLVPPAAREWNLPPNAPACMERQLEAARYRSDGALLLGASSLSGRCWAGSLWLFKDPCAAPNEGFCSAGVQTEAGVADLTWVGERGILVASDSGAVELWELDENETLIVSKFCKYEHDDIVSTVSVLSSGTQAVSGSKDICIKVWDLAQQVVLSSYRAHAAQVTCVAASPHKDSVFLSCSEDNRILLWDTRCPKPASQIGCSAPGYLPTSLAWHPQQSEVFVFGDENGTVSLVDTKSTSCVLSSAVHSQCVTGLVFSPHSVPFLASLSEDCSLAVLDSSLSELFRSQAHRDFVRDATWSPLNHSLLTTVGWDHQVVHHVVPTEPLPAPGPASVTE
Measurement Description: In vitro PRMT5 enzyme activity assay (methylation of histone H4 arginine H4R3, ELISA absorbance at 450 nm)
Conditions Used: S-adenosylmethionine, histone H4 peptide, 2 hours at room temperature, 8 points 10 μM to 0.128 nM
Experimental: Method for Measuring Enzyme Activity In vitro assay: PRMT5-MEP50 enzyme complex, cofactor S-adenosylmethionine (SAM) and histone H4 peptide were reacted in vitro, and methylation of arginine (H4R3) —which is the third amino acid of histone H4—was measured in order to measure the enzyme activity of PRMT5. […]
Assay Readout: IC50

Compound	Target Of Assay	IC50
CC(=O)N1CCN(c2ccc3c(c2)CCN(C[C@H](O)CN2CCc4ccccc4C2)C3=O)C(=O)C1	PRMT5-MEP50 enzyme complex (Homo sapiens, UniProt O14744)	100 to 1000 nM
CN(C)C1CCCN(c2ccc3c(c2)CCN(C[C@H](O)CN2CCc4ccccc4C2)C3=O)C1 (stereo partly shown)	PRMT5-MEP50 enzyme complex (Homo sapiens, UniProt O14744)	100 to 1000 nM
CC(C)(C)OC(=O)N1CCCN(c2ccc3c(c2)CCN(C[C@H](O)CN2CCc4ccccc4C2)C3=O)CC1	PRMT5-MEP50 enzyme complex (Homo sapiens, UniProt O14744)	1 to 100 nM
CS(=O)(=O)N1CCN(c2ccc3c(c2)CCN(C[C@H](O)CN2CCc4ccccc4C2)C3=O)CC1	PRMT5-MEP50 enzyme complex (Homo sapiens, UniProt O14744)	100 to 1000 nM
CC(=O)N1CCN(Cc2ccc3c(c2)CCN(C[C@H](O)CN2CCc4ccccc4C2)C3=O)CC1	PRMT5-MEP50 enzyme complex (Homo sapiens, UniProt O14744)	1 to 100 nM

Input O=C1c2ccc(N3CCS(=O)(=O)CC3)cc2CCN1C[C@H](O)CN1CCc2ccccc2C1 , output reported IC50.
1 to 100 nM

Input CC(C)N1CCN(c2ccc3c(c2)CCN(C[C@H](O)CN2CCc4ccccc4C2)C3=O)CC1=O , output reported IC50.
100 to 1000 nM

Input CN(C)CC1CCN(c2ccc3c(c2)CCN(C[C@H](O)CN2CCc4ccccc4C2)C3=O)CC1 , output reported IC50.
100 to 1000 nM

Input CN1CCN(c2ccc3c(c2)CCN(C[C@H](O)CN2CCc4ccccc4C2)C3=O)CC1=O , output reported IC50.
1 to 100 nM

Input CC(=O)N1CCC(CNc2ccc3c(c2)CCN(C[C@H](O)CN2CCc4ccccc4C2)C3=O)CC1 , output reported IC50.
1 to 100 nM

Input O=C1c2ccc(NCc3cccnc3)cc2CCN1C[C@H](O)CN1CCc2ccccc2C1 , output reported IC50.
1000 to 10000 nM

Input CN(c1ccc2c(c1)CCN(C[C@H](O)CN1CCc3ccccc3C1)C2=O)C1CCCCC1 , output reported IC50.
1 to 100 nM

Input CC(C)(C)OC(=O)N1CC2CC1CN2c1ccc2c(c1)CCN(C[C@H](O)CN1CCc3ccccc3C1)C2=O (stereo partly shown) , output reported IC50.
100 to 1000 nM

Input CC(=O)N1CCN(c2ccc3c(c2)CCN(C(C)C(O)CN2CCc4ccccc4C2)C3=O)CC1 (stereo not shown) , output reported IC50.
100 to 1000 nM

Input CC(=O)N1CCN(c2ccc3c(c2)CCN(C[C@H](O)CN2CCc4ccccc4C2)C3=O)CC1 , output reported IC50.
100 to 1000 nM

Input O=C1c2ccc(NC3CCNCC3)cc2CCN1C[C@H](O)CN1CCc2ccccc2C1 , output reported IC50.
1000 to 10000 nM

###

// values below are reported IC50
Target Of Assay: PRMT5-MEP50 enzyme complex (Homo sapiens, UniProt O14744)
Construct: purchased BPS Bioscience (USA) 51045
Measurement Description: In vitro PRMT5 enzyme activity assay (methylation of histone H4 arginine H4R3, ELISA absorbance at 450 nm)
Assay type: biochemical
Conditions Used: S-adenosylmethionine, histone H4 peptide, 2 hours at room temperature, 8 points 10 μM to 0.128 nM

Look over these answered cases.
Molecule	IC50
CC(=O)N1CC(Oc2ccc3c(c2)CCN(C[C@H](O)CN2CCc4ccccc4C2)C3=O)C1	100 to 1000 nM
O=C1c2ccc(N3CCOCC3)cc2C(F)(F)CN1C[C@H](O)CN1CCc2ccccc2C1	1000 to 10000 nM
O=C1c2ccc(N3CCOC3)cc2CCN1C[C@H](O)CN1CCc2ccccc2C1	100 to 1000 nM
CC(=O)N1CCN(c2ccc3c(c2)C2(CC2)CN(C[C@H](O)CN2CCc4ccccc4C2)C3=O)CC1	1 to 100 nM
O=C(CN1CCOCC1)Nc1ccc2c(c1)CCN(C[C@H](O)CN1CCc3ccccc3C1)C2=O	1 to 100 nM
O=C1c2ccc(N3CCN(C4CCOC4)CC3)cc2CCN1C[C@H](O)CN1CCc2ccccc2C1 (stereo partly shown)	1 to 100 nM

Input O=C1c2ccc(N3CCn4ccnc4C3)cc2CCN1C[C@H](O)CN1CCc2ccccc2C1 , output reported IC50.
1 to 100 nM

Input O=C1c2ccc(N3CCC3=O)cc2CCN1C[C@H](O)CN1CCc2ccccc2C1 , output reported IC50.
100 to 1000 nM

Input C[C@@H]1CN(c2ccc3c(c2)CCN(C[C@H](O)CN2CCc4ccccc4C2)C3=O)C[C@H](C)O1 , output reported IC50.
100 to 1000 nM

###

Target Of Assay: PRMT5-MEP50 enzyme complex (Homo sapiens, UniProt O14744)
Construct: purchased BPS Bioscience (USA) 51045
Measurement Description: In vitro PRMT5 enzyme activity assay (methylation of histone H4 arginine H4R3, ELISA absorbance at 450 nm)
Assay type: biochemical
Conditions Used: S-adenosylmethionine, histone H4 peptide, 2 hours at room temperature, 8 points 10 μM to 0.128 nM
Structures can show the parent of a compound that is named as a salt.
// values below are reported IC50

Look over these answered cases.
Molecule	Target Of Assay	Observed Value
CC(=O)N1CCN(c2cc(F)c3c(c2)CCN(C[C@H](O)CN2CCc4ccccc4C2)C3=O)CC1	PRMT5-MEP50 enzyme complex (Homo sapiens, UniProt O14744)	100 to 1000 nM
CC1(C)CN(C[C@H](O)CN2CCc3ccccc3C2)C(=O)c2ccc(N3CCN(C=O)CC3)cc21 [Example 130, hydrochloride]	PRMT5-MEP50 enzyme complex (Homo sapiens, UniProt O14744)	1000 to 10000 nM
O=C1c2ccc(N3CCN(C4COC4)CC3)cc2CCN1C[C@H](O)CN1CCc2ccccc2C1	PRMT5-MEP50 enzyme complex (Homo sapiens, UniProt O14744)	100 to 1000 nM
CC(=O)N1CCC(Nc2ccc3c(c2)CCN(C[C@H](O)CN2CCc4ccccc4C2)C3=O)C1 (stereo partly shown)	PRMT5-MEP50 enzyme complex (Homo sapiens, UniProt O14744)	100 to 1000 nM
CC1(C)CN(C[C@H](O)CN2CCc3ccccc3C2)C(=O)c2ccc(N3CCC(N4CCCC4)CC3)cc21	PRMT5-MEP50 enzyme complex (Homo sapiens, UniProt O14744)	1 to 100 nM

Input O=C1c2ccc(N3CCN4C(=O)OCC4C3)cc2CCN1C[C@H](O)CN1CCc2ccccc2C1 (stereo partly shown) , output reported IC50.
1 to 100 nM

Input CN(C)C1CCN(c2ccc3c(c2)CCN(C[C@H](O)CN2CCc4ccccc4C2)C3=O)CC1 , output reported IC50.
100 to 1000 nM

Input CC(=O)N1CC2CC1CN2c1ccc2c(c1)CCN(C[C@H](O)CN1CCc3ccccc3C1)C2=O (stereo partly shown) , output reported IC50.
1 to 100 nM

Input CC(=O)N1CCN(c2ccc3c(n2)CCN(C[C@H](O)CN2CCc4ccccc4C2)C3=O)CC1 , output reported IC50.
1 to 100 nM

Input O=C(Nc1ccc2c(c1)CCN(C[C@H](O)CN1CCc3ccccc3C1)C2=O)c1cccnc1 , output reported IC50.
1 to 100 nM
